Assembled from different publications: IC50 for HPK1 (Homo sapiens (Human), UniProt Q92918).

[
  {
    "input-smiles": "Cc1c(-c2cc3nc(Nc4ccc(CS(=O)(=O)C(C)C)cc4)ncc3c(N)c2F)cnc2c1NCCO2",
    "IC50": "0.0689 nM"
  }
]

Param item = CN(C)C[C@@]1(O)CCCN(c2ccc(Nc3ccc(-c4cnc5cc(F)ccn45)c4c3C(=O)NC4)nc2)C1 ; retrieve measured IC50.
< 100 nM

IC50 for CN1CCN(c2ccc(Nc3cnc(-c4cnc5ccccn45)c4c3C(=O)NC4)nc2)CC1 ?
< 100 nM

Dear colleague, I am looking for the recorded IC50 of the following molecule: C/C(Nc1cc(C2CC2)n(C)n1)=C1/C(=O)Nc2cnc(-c3cnccc3C)cc21
< 50 nM

* * *

Literature compilation of pIC50 measurements on HPK1 (Homo sapiens (Human)).
pIC50: −log10 of the molar value.

Known pIC50 results, listed for orientation:
[
  {
    "input-smiles": "COCCOC1CN(c2ccc(Nc3cc(-c4cc(OC)c(C(=O)N5CCCCC5)cc4F)nc4cc[nH]c(=O)c34)nc2)C1",
    "system-name": "HPK1 (Homo sapiens (Human))",
    "pIC50": "≥ 7.00"
  },
  {
    "input-smiles": "Cc1ccc(F)cc1-c1cc2nc(Nc3ccc4c(c3)CN(C)CC4)ncc2c(N)c1F",
    "system-name": "HPK1 (Homo sapiens (Human))",
    "pIC50": 7.94
  },
  {
    "input-smiles": "O=C1NCc2c(-c3cnn4c3CCCC4)ccc(Nc3ccc(N4CCC[C@]5(CCNC5=O)C4)cn3)c21",
    "system-name": "HPK1 (Homo sapiens (Human))",
    "pIC50": "> 7.00"
  },
  {
    "input-smiles": "CC(C)n1ncc2c(N3C[C@@H](C)[C@@H](NCCO)C3)c(NC(=O)c3ccc(=O)n(-c4c(F)cccc4F)n3)ccc21",
    "system-name": "HPK1 (Homo sapiens (Human))",
    "pIC50": "> 7.00"
  },
  {
    "input-smiles": "CNC1CCN(c2ccc(Nc3ccc(-c4ccncc4)c4c3C(=O)NC4)nc2)CC1",
    "system-name": "HPK1 (Homo sapiens (Human))",
    "pIC50": "> 6.00"
  }
]

Name the recorded pIC50 for O=C1NCc2c(-c3cnc4cc(F)ccn34)ccc(Nc3ccc([C@@H]4CCOC4)c(CN4CCC[C@@H]4CO)n3)c21 .
> 7.00

Look up pIC50: CN(C)Cc1nc(Nc2ccc(-c3cnc4cc(F)ccn34)c3c2C(=O)NC3)ccc1OCC(F)F
> 7.00

* * *

pIC50: −log10 of the molar value.
pIC50 values for HPK1 (Homo sapiens (Human), UniProt Q92918), compiled from several publications.

[
  {
    "input-smiles": "Cn1ccc2c(-c3ncc(Nc4cccc(N5C[C@@H](N6CCC6)CC5=O)n4)c4c3CNC4=O)ccnc21",
    "pIC50": "> 7.00"
  },
  {
    "input-smiles": "CN[C@@H]1CCCN(c2cccc(Nc3cnc(-c4ccnc5c4ccn5C)c4c3C(=O)NC4)n2)C1",
    "pIC50": "6.00 to 7.00"
  },
  {
    "input-smiles": "Cc1nc2c(N3CC[C@](C)(N)C3)c(NC(=O)c3ccc(=O)n(-c4c(F)cccc4F)n3)ccc2n1C",
    "pIC50": "> 7.00"
  },
  {
    "input-smiles": "COc1cccc(F)c1-n1nc2c(-c3cc(N4CCN(C)CC4)ccc3F)n[nH]c2cc1=O",
    "pIC50": "≥ 7.30"
  },
  {
    "input-smiles": "CN1Cc2ccc(Nc3ncc(C(N)=O)c(Nc4cccc5c4CCNC5)n3)cc2C1=O",
    "pIC50": 8.44
  }
]

Tell me reported pIC50 for CNC(=O)c1cccc(-c2cccc3cnc(Nc4cc5c(nc4OC)CCN(C)C5)nc23)c1 , tested with HPK1 (Homo sapiens (Human), UniProt Q92918).
8.72

Checklist item: pIC50 tested on HPK1 (Homo sapiens (Human), UniProt Q92918), entry CNC1CCN(c2ccc(Nc3ccc(-c4ccnc5c4ccn5C)c4c3C(=O)NC4)nc2)CC1 , value?
> 7.00

Give pIC50 (HPK1 (Homo sapiens (Human), UniProt Q92918)) of the following compound: CN(C)Cc1nc(Nc2ccc(-c3cnc4cc(F)ccn34)c3c2C(=O)NC3)ccc1N1CCC[C@@H](C(C)(C)O)C1
> 7.00
